Target: purified human Factor XIa (Homo sapiens (Human), UniProt P03951)
Sequence (P03951 388-625): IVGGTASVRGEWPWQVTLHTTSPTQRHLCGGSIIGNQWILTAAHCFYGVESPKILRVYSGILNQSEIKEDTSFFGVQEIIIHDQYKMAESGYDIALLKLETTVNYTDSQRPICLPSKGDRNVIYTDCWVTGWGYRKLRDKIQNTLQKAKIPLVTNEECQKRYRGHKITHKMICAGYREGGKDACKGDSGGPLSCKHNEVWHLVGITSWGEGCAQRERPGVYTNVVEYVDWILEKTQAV
Sequence (P03951 19-387 partner): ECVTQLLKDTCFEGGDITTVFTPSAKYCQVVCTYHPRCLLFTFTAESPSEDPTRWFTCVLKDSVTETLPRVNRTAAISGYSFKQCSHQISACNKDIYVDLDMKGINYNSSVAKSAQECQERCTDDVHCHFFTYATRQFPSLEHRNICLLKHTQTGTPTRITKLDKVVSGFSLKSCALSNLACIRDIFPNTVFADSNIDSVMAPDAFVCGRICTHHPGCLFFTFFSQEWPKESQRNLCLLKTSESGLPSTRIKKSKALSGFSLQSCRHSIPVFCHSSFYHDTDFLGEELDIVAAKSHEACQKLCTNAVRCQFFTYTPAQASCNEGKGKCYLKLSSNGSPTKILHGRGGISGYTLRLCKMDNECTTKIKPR
Assay: Factor XIa enzyme inhibition assay (chromogenic substrate S-2366)
Conditions: read-out: Factor XIa Ki; measured at 25° C.
Counter-ions that a name gives are not always drawn.
readout-name: log10 of Ki (log10 of the value in µM)
Form field - Quantity: Ki; Unit: µM; Scale: log10

Given COC1CCN(c2cccc3c2CCN(C(=O)c2cn(-c4cccc(Cl)c4F)nn2)C3C(=O)Nc2ccc3c(c2)CCC(=O)N3C)CC1 (stereo not drawn) [Example 189, TFA salt] , respond with its log10 of Ki.
-0.39

Given O=C(Nc1ccc(-c2ncc[nH]2)cc1)[C@H]1c2cccc(-c3cncnc3)c2CCN1C(=O)c1cn(-c2cccc(Cl)c2F)nn1 [Example 139, TFA salt] , respond with its log10 of Ki.
-0.88

Given COC1CCN(c2cccc3c2CCN(C(=O)c2cc(C)n(-c4ccc(Cl)cc4)c2C)C3C(=O)Nc2ccc(C(=O)O)cc2)CC1 (stereo not drawn) [Example 147, TFA salt] , respond with its log10 of Ki.
0.43

Given O=C(O)c1ccc(NC(=O)[C@H]2c3ccccc3CCN2C(=O)c2cn(-c3cccc(Cl)c3F)nn2)cc1 [Example 2] , respond with its log10 of Ki.
0.75

Given COC1CCN(c2cccc3c2CCN(C(=O)c2ccnc(-c4cccc(Cl)c4F)c2)C3C(=O)Nc2ccc(C(=O)O)cc2)CC1 (stereo not drawn) [Example 324, TFA salt] , respond with its log10 of Ki.
-1.43

Given COC1CCN(c2cccc3c2CCN(C(=O)c2cc(-c4cccc(F)c4)no2)C3C(=O)Nc2ccc(C(=O)O)cc2)CC1 (stereo not drawn) [Example 152, TFA salt] , respond with its log10 of Ki.
-0.33
